The origin of these recorded values is paper PMC4610412.

target under test: pCdc25C (Homo sapiens)
protocol notes: ITC
experimental parameters: phospho-T5 of peptide (pT48)
measurement name: pKd
Answer as the number alone; pKd is minus log10 of concentration in mol/L.

### Prompt Complete the entry with pKd for ADEEKLPPGWEKRMSRSSGRVYYFNHITNASQWERPSGNSS [Pin1 WW domain (isolated) WW, Q13526]
### Response 4.89
